- Tested on: OVCAR-4
- protocol.notes: NCI tumour cell line growth inhibition, 48 h
Active and inactive are the calls of the source. Cut-off read from the data, not from the text of the source: active = GI50 up to about 1.1 µM and inactive = higher.
quantity.name: GI50

// fetch GI50 given entry CCOC(=O)c1c(CN2CCCC2)n(-c2ccccc2)c2cc(Br)c(OC)cc12
33.4 µM (inactive)

Provide one value: measured GI50 of COc1cc2c(cc1O)N=C[C@@H]1CC[C@@H](O)N1C2=O.COc1cc2c(cc1O)N=C[C@@H]1CC[C@H](O)N1C2=O
3.55 µM (inactive)

Give the measured GI50 for C=C(C(=C)P(=S)(C(C)C)C(C)C)P(=S)(C(C)C)C(C)C
> 100 µM (inactive)

Identify GI50 associated with the compound CCCNCCCCC(NC(C)=O)C(=O)NCc1ccccc1 (centres undefined)
> 100 µM (inactive)

Quote GI50 reported for Cc1cccc(NC(=O)CSc2nnc(Cc3ccccc3)o2)c1 please.
> 100 µM (inactive)

State its GI50 for this compound: COc1cc(/C=C2/SC(c3ccccc3)N(c3ccccc3Cl)C2=O)cc(OC)c1OC (centres undefined)
41.6 µM (inactive)

Output measured GI50 for this item: CCCCn1cnc2c(SC)ncnc21
> 100 µM (inactive)

Annotate the compound Clc1ccc(-c2ccc(-c3nnc(CCc4nnc(-c5ccc(-c6ccc(Cl)cc6)o5)o4)o3)o2)cc1 with its measured GI50.
> 100 µM (inactive)

Determine from records and report GI50 for C=C[C@]1(C)CCC2=C(CCC3C2(C)CCC[C@]3(C)CO)C1 (some centres undefined)
> 100 µM (inactive)

Look up GI50 of Cc1nc2c(o1)C(=O)c1ccccc1/C2=N/C1CCCCC1N (centres undefined) and report it.
0.308 µM (active)

Given O=Cc1ccccc1CCn1c(=O)c2cc3c(=O)n(CCc4ccccc4C=O)c(=O)c3cc2c1=O , respond with its GI50.
> 100 µM (inactive)

Output GI50 of Cc1c(-c2ccccc2)c(=O)oc2ccc(Cl)cc12
53.3 µM (inactive)

Fill in GI50 for record CN(CCCN1C(=O)c2cccc3cc([N+](=O)[O-])cc(c23)C1=O)CCN(C)CCCN1C(=O)c2cccc3cc([N+](=O)[O-])cc(c23)C1=O
27.4 µM (inactive)

Return GI50 for the following compound: Cc1ccc(O)c(C(c2ccc(C(c3cc(C)ccc3O)c3cc(C)ccc3O)cc2)c2cc(C)ccc2O)c1
1.79 µM (inactive)

====

- Tested on: RPMI-8226
- protocol.notes: NCI tumour cell line growth inhibition, 48 h
Calls of active or inactive are those of the source. Rule as the data show it: active = GI50 up to about 1.1 µM and inactive = higher.
Classes to choose from: active, inactive

I'd appreciate the recorded outcome for Cc1ccccc1C1CC(c2ccccc2)=NO1 (configuration not stated) from this test.
inactive

Recorded call for CN(C)C1C(CO)OC(n2cnc3c(N)ncnc32)C1O (configuration not stated) ?
inactive

Each molecule tested received a call. Report the one for CC(C)(C)N/N=C(\C(=O)NC1=C(Cl)C(=O)c2ccccc2C1=O)C1C=CCS1(=O)=O (configuration not stated) .
inactive

Look up the recorded call for O=C1c2ccccc2-c2nnc3c(c21)-c1ccccc1C3 in this test.
inactive

Please share the test call associated with O=C1CCCCC/C1=C\c1ccc([N+](=O)[O-])cc1 .
inactive

GET /call?item= O=c1c(C(c2ccc(OCc3ccccc3)cc2)c2c(O)oc3ccccc3c2=O)c(O)oc2ccccc12 returns the recorded outcome of this test.
inactive

Hey, what did the test say about CCOc1c(OC)cc(-c2nc3n(n2)C(=O)C(CC)S3)cc1OC (configuration not stated) ?
inactive

Please state the recorded outcome for this molecule: O=C(/C=C\c1ccccc1O)c1ccc(O)cc1O
inactive

Hi team, can someone confirm the assay call for COC1C=COC2(C)Oc3c(C)c(O)c4c(O)c(c(C5SCCS5)c(O)c4c3C2=O)NC(=O)/C(C)=C\C=CC(C)C(O)C(C)C(O)C(C)C(OC(C)=O)C1C (configuration not stated) ?
inactive

Can you look up the reported call for Nc1nc2c(c(=O)[n-]1)[n+](CCO)cn2C1OC(CO)C(O)C1O (configuration not stated) for me?
inactive

Please indicate how the test categorized O=C1/C(=C/c2cccc(Br)c2)CSC/C1=C\c1cccc(Br)c1 .
active

Which result was noted for this molecule in the test: COc1cc(C=C2C(C)=NN(c3cccc(Cl)c3)C23SCC(=O)N3c2nc3ccccc3s2)ccc1O (configuration not stated)
inactive

Call for entry CC(=O)Oc1ccc(/C=C/C(=O)NCC(NC(=O)/C=C/c2ccc(OC(C)=O)c(OC(C)=O)c2)C(=O)O)cc1OC(C)=O (configuration not stated) :
inactive

Any idea what this test logged for COc1cccc(CC(C)NCC(O)c2ccc(O)c(O)c2)c1 (configuration not stated) ?
inactive

What call does the record list for C[C@H](N[C@H]1CCC[C@]1(O)C#Cc1ccc2c(c1)OCO2)c1ccccc1 ?
inactive

Hi, sorry to bother you, what did the test record for c1ccc(NCCSc2nc3ccccc3s2)cc1 ?
inactive

What outcome does the record of this test show for COC(=O)C(Cc1ccc2c(c1)OCO2)(NC(=O)c1ccccc1)P(=O)(OC)OC (configuration not stated) ?
inactive

Record lookup: outcome of this test for O=[N+]([O-])C(=C/c1cccs1)/C(=C\c1cccs1)[N+](=O)[O-] ?
active

Each molecule tested received a call. Report the one for Clc1ccc(/C=N/c2ccc3c(c2)Cc2ccccc2-3)c(Cl)c1 .
inactive

State the result this test recorded for CCN(CC)c1cccc2c1C1(O)CCC3(CC21)OCCCCO3 (configuration not stated) .
inactive

# lookup: test call for Cc1ccc(S(=O)(=O)NNC(=S)Nc2cccc3ccccc23)cc1
inactive

Could you check what this test reported for COC1=CCC2=C(CCN(C(=O)C3CC3)C2Cc2ccc(OC)c(O)c2)C1 (configuration not stated) ?
inactive

Assay result, entry CCCC(CCN)(CCN)[N+](=O)[O-] — outcome?
inactive

Check the results log: what was the call for CC(C)N1CCN(c2ccc(OCC3COC(Cn4cncn4)(c4ccc(Cl)cc4Cl)O3)cc2)CC1 (configuration not stated) ?
inactive

Hi, do you know how O=C(Cc1ccccc1)N/N=C(/c1nc2ccc([N+](=O)[O-])cc2nc1O)C(O)c1ccc(C(O)/C(=N/NC(=O)Cc2ccccc2)c2nc3ccc([N+](=O)[O-])cc3nc2O)cc1 (configuration not stated) came out in this test?
inactive

Field: outcome | Entry: O=c1c2ccccc2[nH]c(=S)n1-c1ccc(Br)cc1
inactive

Each molecule tested received a call. Report the one for CSC1=NC(=O)CCN1C1OCC(OC(C)=O)C(OC(C)=O)C1OC(C)=O (configuration not stated) .
inactive

Call for entry O=S(=O)(N/N=C/c1ccc(Cl)cc1Cl)c1ccccc1 :
inactive

Given C/C(=N/NC(=S)N1CC2CCC(CC2)C1)c1cnccn1 , state the outcome it received in this test.
active

Could you kindly confirm the outcome this assay logged for C/C(CC(=O)Nc1ccc([N+](=O)[O-])cc1)=N\NC(N)=O ?
inactive

Hello, I am checking results. What call was entered for O=CN1CCN(C=S)CC1 ?
inactive

Which outcome was entered for the molecule CCOC(=O)c1c(CN2CCCC2)n(-c2ccccc2)c2cc(Br)c(OC)cc12 in this test?
inactive

Fill in: this test's call for CC(C)=CCC[C@@H](C)c1c2nc3ccccc3[nH]c-2c(C)c(=O)c1O is ___
inactive

# lookup: test call for CN(O)C(=O)CCC(NC(=O)CCC(N)C(=O)O)C(=O)NCC(=O)O (configuration not stated)
inactive

// outcome(item) with item = Cc1ccc(S(=O)(=O)NNC(=O)Nc2ccc(Cl)cc2)cc1
inactive

What is the recorded call for this molecule in the test? CC(C)(C)OC(=O)NC(Cc1ccc(OC(C)(C)C)cc1)C(=O)N[C@H]1CCC[C@H]1C(=O)NC(Cc1ccccc1)C(=O)N1CCCC1C(N)=O (some centres not stated)
inactive

Hi, do you know how CC(=O)c1c(-c2ccccc2)c(-c2ccc(OCCN(C)C)cc2)n2ccccc12 came out in this test?
inactive

====

- Test system: SK-OV-3
- protocol.notes: NCI tumour cell line growth inhibition, 48 h
Activity calls are given as the source filed them. Cut-off read from the data, not from the text of the source: active = GI50 up to about 1.1 µM and inactive = higher.
I would appreciate it if you answered using one of these outcomes: T (active), F (inactive)

In this assay, the call recorded for CCN(C(=S)N[C@H](C(=O)N[C@@H](C)C(=O)OC)C(C)C)c1ccccc1 was what?
F

Hi team, can someone confirm the assay call for CC(=O)c1cccc(Nc2nc3ccc(Cl)cc3c3[nH]c4ccccc4c23)c1 ?
F

Which outcome did this test record for the compound Cc1ccccc1/N=N/c1ccc(/N=N/c2c(O)ccc3cc(S(=O)(=O)O)cc(S(=O)(=O)O)c23)c(C)c1 ?
F

// return assay outcome for CC(C)(C)N/N=C(\C(=O)NC1=C(Cl)C(=O)c2ccccc2C1=O)C1C=CCS1(=O)=O (centres undefined)
F

Which outcome did this test record for the compound CC[C@]1(O)CC(OC2CC(N(C)C)C(O)C(C)O2)c2c(cc3c(c2O)C(=O)c2c(O)cccc2C3=O)[C@@H]1C(=O)OC (some centres undefined) ?
T

What was the test verdict on Cn1c(N=P(c2ccccc2)(c2ccccc2)c2ccccc2)c([N+](=O)[O-])c(=O)n(C)c1=O ?
F

Please state the recorded outcome for this compound: CCc1cccc(C)c1NC(=O)CCc1n[nH]c(=S)o1
F

Recorded test call requested for Cc1cc2c([N+](=O)[O-])cc3c(c2o1)C(=O)C=CC3=O
F

GET /call?item= FC(F)(F)c1ccc(C2=N/S(c3ccccc3)=N\C(c3ccc(C(F)(F)F)cc3)=N/S(c3ccccc3)=N\2)cc1 (centres undefined) returns the recorded outcome of this test.
F

For CCSC1=CC2(O)N(CCc3ccc(OC)c(OC)c3)C(=O)CC2(C(=O)OC)CC1=O (centres undefined) , which call appears in the assay record?
F

Record request — test call for CC1=CC2C(O1)C1C(=O)C=CC(=O)C1=CC2[N+](=O)[O-] (centres undefined)
F

Field: outcome | Entry: NC(N)NCCCc1cn2c(n1)C1CCCN1C(=O)C2Cc1ccccc1 (centres undefined)
F

What did the test return for Clc1ccccc1-c1nn2c(CCCCCCCCc3nnc4sc(-c5ccccc5Cl)nn34)nnc2s1 ?
F

What is the recorded call for this compound in the test? CN(C)CCC(/C=C/c1ccccc1)=N\Nc1ccc(Cl)c(Cl)c1
F

I would be grateful if you could indicate the recorded call for CCOC(=O)N1N=NC2C3OC(C[C@@]3(C#N)OC(C)=O)[C@H]21 (some centres undefined) .
F

What did the test return for CSc1nc(C)cc(N(C)c2ccccc2)n1 ?
F

Recorded call for C[C@H](N[C@H]1CCC[C@]1(O)C#Cc1ccc2c(c1)OCO2)c1ccccc1 ?
F

I'd appreciate the recorded outcome for O=[N+]([O-])/C(C(Cl)=C(Cl)Cl)=C(\Nc1ccccc1)n1nnc2ccccc21 from this test.
F

Fill in: this test's call for CC(C)(C)c1ccc2c(c1)OP1(Oc3c(Cl)cc(Cl)c4cccnc34)(O2)Oc2ccc(C(C)(C)C)cc2O1 is ___
F
